- Tested on: HOP-92
- method: NCI tumour cell line growth inhibition, 48 h
Active and inactive are the calls of the source. Rule as the data show it: active = GI50 up to about 1.1 µM and inactive = higher.
reported_property: GI50

Field: example entries. Status: answers known.
molecule | system_name | GI50
Clc1ccc(/C=N/c2ccc(Oc3ccc(Cl)cc3)c(Cl)c2)cc1 | HOP-92 | 19.4 µM (inactive)
COC(=O)C(NC(=O)c1ccccc1)c1ccco1 (stereo not given) | HOP-92 | > 100 µM (inactive)
O=C(c1ccc(Cl)cc1)C1OC12C(=O)Nc1ccccc12 (stereo not given) | HOP-92 | 10.8 µM (inactive)

State, in one line, measured GI50 of `BrCC[P+](c1ccccc1)(c1ccccc1)c1ccccc1`
3.57 µM (inactive)

State, in one line, measured GI50 of `S=C(NCCCCCCNC(=S)Nc1c2ccccc2nc2ccccc12)Nc1c2ccccc2nc2ccccc12`
52.4 µM (inactive)

State, in one line, measured GI50 of `O=C1c2ccccc2C(=O)c2nc(-c3ccccc3)c(-c3ccccc3)nc21`
20.3 µM (inactive)

State, in one line, measured GI50 of `Cn1cc(NC(=O)c2cc(NC(=O)CCCCCC(=O)Nc3cc(C(=O)Nc4cc(C(=O)NCCC(=N)N)n(C)c4)n(C)c3)cn2C)cc1C(=O)NCCC(=N)N`
> 100 µM (inactive)

State, in one line, measured GI50 of `CCCCOc1ccc(NC(=N)Nc2ccc(Cl)cc2)cc1`
2.58 µM (inactive)

State, in one line, measured GI50 of `Cc1ccc(NC(=O)CCc2n[nH]c(=S)o2)cc1`
> 100 µM (inactive)

State, in one line, measured GI50 of `CN(CCNC(=O)c1nn(-c2ccccc2)c2c1ccc1ccccc12)CCNC(=O)c1nn(-c2ccccc2)c2c1ccc1ccccc12`
1.73 µM (inactive)

----------
- System: OVCAR-3
- method: NCI tumour cell line growth inhibition, 48 h
Calls of active or inactive are those of the source. Cut-off read from the data, not from the text of the source: active = GI50 up to about 1.1 µM and inactive = higher.
Would you mind answering with one of these outcomes? Y for active, N for inactive

Recorded results for 3 molecules are shown here.
molecule | category_label
O=C(/C=C/c1ccc(Cl)c(Cl)c1)CCN1CCN(CCC(=O)/C=C/c2ccc(Cl)c(Cl)c2)CC1 | N
O=C1NC(c2cccc(OCc3ccccc3)c2)Nc2ccccc21 (stereo not given) | Y
N#C/C(=C/c1cccc2ccccc12)C(=O)c1ccccc1 | N

Returns: the outcome recorded for `CNc1ncccc1Nc1cc(=O)n2c3cccnc3n(C)c2c1` in this assay.
N

Returns: the outcome recorded for `CSCSCC(N)CO.Cc1[nH]c(=O)[nH]c(=O)c1/C=C/C(=O)O` in this assay.
N

----------
- System: SNB-75
- method: NCI tumour cell line growth inhibition, 48 h
Activity calls are given as the source filed them. Rule as the data show it: active = GI50 up to about 1.1 µM and inactive = higher.
reported_property: GI50

Field: example entries. Status: answers known.
compound | reported_value
CNC1=Nc2ccc(Cl)cc2C(OP(=O)(N2CCOCC2)N2CCOCC2)=NC1 | > 100 µM (inactive)
O=c1oc2cc(O)ccc2c2oc3cc(O)ccc3c12 | 94.8 µM (inactive)
O=C1N=C(SC2OC(CO)C(O)C(O)C2O)S/C1=C\c1ccccc1 (stereo not given) | > 100 µM (inactive)
O=S(=O)(c1ccccc1)[C@@H]1[C@H]2C=C[C@](CS)(O2)[C@H]1S(=O)(=O)c1ccccc1 | 67.5 µM (inactive)

State, in one line, measured GI50 of `[N-]=[N+]=C1C(=O)c2ccccc2-c2ccccc21`
20 µM (inactive)

State, in one line, measured GI50 of c1ccc2c(c1)nnn2C1CCCCO1 (stereo not given)
> 100 µM (inactive)

State, in one line, measured GI50 of `CC(/C=C/C(O)=C1/C(=O)CNC1=O)=C\[C@@H](C)[C@H]1O[C@@]2(C)O[C@H](C(=O)[C@@H]3O[C@@]32C)[C@@H]1C`
34.8 µM (inactive)

State, in one line, measured GI50 of `N#Cc1c(Cl)c2cccnc2n2c1nc1ccccc12`
4.38 µM (inactive)

State, in one line, measured GI50 of Fc1ccc2nc3n(c2c1)C(c1c(Cl)cccc1Cl)SC3 (stereo not given)
63.4 µM (inactive)

State, in one line, measured GI50 of CC(C)C(=O)Nc1nc2c(ncn2C2OC(CO)C(O)C2O)c(=O)[nH]1 (stereo not given)
> 100 µM (inactive)

----------
- Tested on: HOP-62
- method: NCI tumour cell line growth inhibition, 48 h
Activity calls are given as the source filed them. Cut-off read from the data, not from the text of the source: active = GI50 up to about 1.1 µM and inactive = higher.
Would you mind answering with one of these outcomes? active, inactive

molecule | system_name | category_label
Nc1ncnc2c1ncn2C1OC(CSCc2ccc(Cl)cc2)C(O)C1O (stereo unspecified) | HOP-62 | inactive

Returns: the outcome recorded for `CCC/C(=N\NC(=S)N1CCN(c2ccccn2)CC1)c1ccccn1` in this assay.
active

Returns: the outcome recorded for `NC(=O)N1N=C2c3ccccc3OC[C@H]2[C@@H]1c1ccccc1` in this assay.
inactive

Returns: the outcome recorded for `CCOC(=O)c1cc(-c2ccc(OC)cc2)c([N+](=O)[O-])[nH]1` in this assay.
inactive

Returns: the outcome recorded for `CCOc1ccc(N2C(=O)/C(=C/c3ccc(N(CCC#N)CCC#N)cc3)N=C2c2cc([N+](=O)[O-])ccc2Cl)cc1` in this assay.
inactive

Returns: the outcome recorded for `O=c1[nH]c(C23CC4CC(CC(C4)C2)C3)cc2c1c(=O)oc1ccccc12` in this assay.
inactive

----------
- System: SNB-19
- method: NCI tumour cell line growth inhibition, 48 h
Active and inactive are the calls of the source. Cut-off read from the data, not from the text of the source: active = GI50 up to about 1.1 µM and inactive = higher.
Would you mind answering with one of these outcomes? y (active), n (inactive)

molecule | category_label
COC1/C=C/C=C(/C)Cc2cc(O)c(Cl)c(c2)N(C)C(=O)CC(OC(=O)C(C)C)C2(C)OC2C(C)C2CC1(O)NC(=O)O2 (centres undefined) | y
NC(=O)N1N=C2c3ccccc3OC[C@H]2[C@@H]1c1ccccc1 | n
O=C(/C=C/c1ccc(OCCCCCCCCCCOc2ccc(/C=C/C(=O)c3ccc(Cl)cc3)cc2)cc1)c1ccc(Cl)cc1 | n
O=C(O)/C(Cc1c[nH]nn1)=N\O | n

Here is another molecule to look at.
Returns: the outcome recorded for `COC(=O)c1nc(Cl)nc(Cl)c1Cl` in this assay.
n

----------
- System: SF-539
- method: NCI tumour cell line growth inhibition, 48 h
Calls of active or inactive are those of the source. Rule as the data show it: active = GI50 up to about 1.1 µM and inactive = higher.
reported_property: GI50

Field: example entries. Status: answers known.
compound | system_name | GI50
Nc1ncnc2c1ncn2C1OC(CSCc2ccc(Cl)cc2)C(O)C1O (stereo not given) | SF-539 | 29.4 µM (inactive)
COc1ccc(/C(=N\NC(=N)N)C(c2ccc(OC)cc2)C2OC(=O)c3ccccc32)cc1 (stereo not given) | SF-539 | > 100 µM (inactive)
CC(C)(O)[C@@H]1CCC(C)([C@H]2[C@@H](O)CC3(C)C4CC(OC5OC(CO)C(O)C(O)C5O)C5C(C)(C)[C@@H](OC6OCC(O)C(O)C6O)CC[C@@]56C[C@@]46CC[C@]23C)O1 (stereo not given in full) | SF-539 | > 100 µM (inactive)

State, in one line, measured GI50 of Nc1nc2ncn(CC(O)CO)c2c(=S)[nH]1 (stereo not given)
> 100 µM (inactive)

State, in one line, measured GI50 of `CC(=N/NC(N)=S)/C(C)=N/NC(N)=S`
> 100 µM (inactive)

----------
- Test system: HL-60
- method: NCI tumour cell line growth inhibition, 48 h
Activity calls are given as the source filed them. No stated cut-off is given here; in the data, active = GI50 up to about 1.1 µM and inactive = higher.
Would you mind answering with one of these outcomes? T for active, F for inactive

Recorded results for 3 molecules are shown here.
molecule | category_label
N#Cc1cc2c(n(C3OC(CO)C(O)C(O)C3O)c1=S)CCCCC2 (stereo not given) | F
Cc1nn(C(=O)c2ccc(Cl)cc2)c2c1C(c1ccccc1[N+](=O)[O-])SC(=N)N2 (stereo not given) | F
O=C(Cc1ccccc1)NN1C(=O)C(Cl)C1c1cc(Br)cc(Br)c1O (stereo not given) | F

Returns: the outcome recorded for `O=C(COc1ccc2c(=O)cc(-c3ccc(Cl)cc3)oc2c1)N1CCN(c2ccccc2)CC1` in this assay.
F

Returns: the outcome recorded for COc1ccc2c(c1)CC[C@@H]1C2CC[C@]2(C)C(=O)N(CCN3CCCCC3)C(=O)CC12 (stereo not given in full) in this assay.
F

Returns: the outcome recorded for `c1ccc(COc2ccc(C[P+](c3ccccc3)(c3ccccc3)c3ccccc3)cc2)cc1` in this assay.
T

Returns: the outcome recorded for CC(=O)c1ccc(NC(=O)C(=O)C(C(=O)/C=C/c2ccccc2)C2OC(=O)c3ccccc32)cc1 (stereo not given) in this assay.
F

Returns: the outcome recorded for CC(C(=O)OCc1ccccc1)(c1ccco1)N1C(=O)OC(c2ccccc2)C1c1ccccc1 (stereo not given) in this assay.
F

Returns: the outcome recorded for `CC(=O)Nc1ccc(S(=O)(=O)/N=C2\C=CC(=O)c3ccccc32)cc1` in this assay.
T

Returns: the outcome recorded for `CC1=NN(C(=O)c2ccc(Cl)cc2)C(=O)/C1=C/c1c(O)cc(O)c2ccccc12` in this assay.
F

Returns: the outcome recorded for CC(=O)OCC1=C(C)C[C@H]([C@@H](COC(C)=O)C2CCC3C4C[C@H]5O[C@]56CC=CC(=O)[C@]6(C)C4CC[C@@]32C)OC1=O (stereo not given in full) in this assay.
T

Returns: the outcome recorded for CC(C)C(=O)Nc1nc2c(ncn2C2OC(CO)C(O)C2O)c(=O)[nH]1 (stereo not given) in this assay.
F

Returns: the outcome recorded for `O=[N+]([O-])c1cnccc1-n1nnc2ccccc21` in this assay.
F
